Provenance of the data: PubChem BioAssay (Tox21)

# Assay protocol: qHTS assay to identify small molecule agonists of H2AX (AID 1224845); note: potency is the fitted concentration of half-maximal effect
# Assay context: CHO-K1 phospho-H2AX Ser139 HTRF, 3 h; series mostly up to 154 µM
Records with an inconclusive call do not appear. Active and inactive are the calls of the source. Calls come from the whole dose curve; as a rule, active = well fitted activation curve with a large enough effect in the signal ratio in the repeat runs (not every such curve was filed as active); inconclusive = weak or mixed curves; inactive = flat fitted curve, though single readings scatter; the % refers to the signal ratio.
Observation type: Potency

In the examples that follow, each entry is paired with its recorded Potency.
* CC(=O)N[C@@H](CS)C(=O)O | inactive
* CC(COc1ccccc1)N(CCCl)Cc1ccccc1 (centres undefined) | 113 µM (active)
* C=C(C)C(=O)O | inactive
* Cc1occc(=O)c1OC(=O)C(C)C | inactive
* Oc1ccc(Cl)cc1Cc1cc(Cl)ccc1O | inactive
* CC(C)CCOC(=O)c1ccc(N(C)C)cc1 | inactive
* O=C(O)Cn1cnnn1 | inactive
* Nc1ccc2cc3ccccc3cc2c1 | inactive

Query: What value of Potency has been recorded for this entry: COc1cc(C(=S)N2CCOCC2)ccc1O
Response: inactive

Query: # repeat for O=C(Cl)c1cccc(C(=O)Cl)c1
Response: inactive

* * *

# Assay protocol: A CellTox Green Cytotoxicity Assay to monitor cytotoxicity in HEK293 cells - 16 hour (AID 1224888); note: nearly all actives have a fitted effect of over 35% in size
# Assay context: CellTox Green fluorescence; series mostly up to 76.8 µM
Inconclusive results are not listed. Active and inactive are the calls of the source. The call rests on the fitted dose curve; in most records, active means well fitted activation curve with a large enough effect in the repeat runs; inconclusive means weak or mixed curves; inactive means flat fitted curve, though single readings scatter.
// allowed return values: active, inactive

Use the examples below as a reference point.
* COc1ccc(CCN(C)CCCC(C#N)(c2ccc(OC)c(OC)c2)C(C)C)cc1OC (stereo not given) | inactive
* CCC(C)(C)C(=O)O[C@H]1C[C@@H](C)C=C2C=C[C@H](C)[C@H](CC[C@@H]3C[C@@H](O)CC(=O)O3)[C@H]21 | inactive
* CCN(CC)C(=O)Nc1ccc(OCC(O)CNC(C)(C)C)c(C(C)=O)c1 (stereo not given) | inactive

Query: Kindly provide the recorded test outcome for the following compound: CO[Si](OC)(OC)c1ccccc1
Response: inactive

Query: # repeat for COC(c1ccccc1)(c1ccccc1)[C@H](Oc1nc(C)cc(C)n1)C(=O)O
Response: inactive

Query: # repeat for CCOc1ccc2c(c1)C(C)=CC(C)(C)N2
Response: inactive

Query: # repeat for CC(C)(C)NC(=O)[C@@H]1CN(Cc2cccnc2)CCN1C[C@@H](O)C[C@@H](Cc1ccccc1)C(=O)N[C@H]1c2ccccc2C[C@H]1O
Response: inactive

Query: # repeat for COC(=O)[C@H]1[C@H]2C[C@@H]3c4[nH]c5cc(OC)ccc5c4CCN3C[C@H]2C[C@@H](OC(=O)c2cc(OC)c(OC)c(OC)c2)[C@@H]1OC
Response: inactive

Query: # repeat for CNC1(C)C2CCC(C2)C1(C)C (stereo not given)
Response: inactive

Query: # repeat for CCCCC(CC)COC(=O)CC(C(=O)OCC(CC)CCCC)S(=O)(=O)O (stereo not given)
Response: active

Query: # repeat for c1cc(C(c2ccc(OCC3CO3)cc2)C(c2ccc(OCC3CO3)cc2)c2ccc(OCC3CO3)cc2)ccc1OCC1CO1 (stereo not given)
Response: inactive

Query: # repeat for Cc1c(O)cccc1C(=O)N[C@@H](CSc1ccccc1)[C@H](O)CN1C[C@H]2CCCC[C@H]2C[C@H]1C(=O)NC(C)(C)C
Response: inactive

* * *

# Assay protocol: Caspase-3/7 induction in HepG2 cells by small molecules, qHTS assay (AID 1346978); note: nearly all actives have a fitted effect of over 15% in size
# Assay context: HepG2 caspase-3/7 activation, Caspase-Glo luminescence, 17 h; series mostly up to 92.4 µM
Inconclusive results are not listed. The source made the active and inactive calls. The call rests on the fitted dose curve; in most records, active means well fitted activation curve with a large enough effect in the repeat runs; inconclusive means weak or mixed curves; inactive means flat fitted curve, though single readings scatter.
// allowed return values: active, inactive

• Cc1cc(C(C)(C)C)c(O)c(C(C)(C)C)c1 = inactive
• c1cc(C(c2ccc(OCC3CO3)cc2)C(c2ccc(OCC3CO3)cc2)c2ccc(OCC3CO3)cc2)ccc1OCC1CO1 (centres undefined) = inactive
• CCC(=O)/C=C/C1C(C)=CCCC1(C)C (centres undefined) = inactive
• O=C(Oc1ccccc1)c1ccccc1O = inactive
• O=C1Nc2ccccc2C1(c1ccc(O)cc1)c1ccc(O)cc1 = inactive

Query: Kindly provide the recorded test outcome for the following compound: [Cl][In]([Cl])[Cl]
Response: inactive

Query: # repeat for CC[C@@H](N)CO
Response: inactive

Query: # repeat for CC(C)(C)NCC(O)COc1ccccc1OCC1CCCO1 (centres undefined)
Response: inactive

Query: # repeat for CC(C)(C)c1ccccc1
Response: inactive

Query: # repeat for CCOc1ccccc1C(N)=O
Response: inactive

Query: # repeat for O=C(O)CCc1ccccc1
Response: inactive

Query: # repeat for CCC[C@H](N[C@@H](C)C(=O)N1[C@H](C(=O)O)C[C@@H]2CCCC[C@@H]21)C(=O)OCC
Response: inactive

* * *

# Assay protocol: qHTS assay for small molecule agonists of the p53 signaling pathway - cell viability (AID 651633); note: nearly all actives have a fitted effect of over 30% in size
# Assay context: p53RE-bla HCT-116 viability, ATP luminescence, 16 h; series mostly up to 83.3 µM
Results filed as inconclusive are left out. Active and inactive are the calls of the source. The call rests on the fitted dose curve.
// allowed return values: t (active), f (inactive)

* CN(C)c1ccc2nc3ccc(=[N+](C)C)cc-3sc2c1 | t

Query: Kindly provide the recorded test outcome for the following compound: Clc1ccc2c(c1)C(N1CCNCC1)=Nc1ccccc1O2
Response: f

Query: # repeat for CCCCCCCCCCCCCCCCCl
Response: f

Query: # repeat for CC1COc2c(N3CCN(C)CC3)c(F)cc3c(=O)c(C(=O)O)cn1c23 (stereo not given)
Response: f

Query: # repeat for c1cnc2cc3c(cc2n1)C1CNCC3C1
Response: f

Query: # repeat for CCC(CO)(CO)COCC(CC)(CO)CO
Response: f

Query: # repeat for CNC1(C)C2CCC(C2)C1(C)C (stereo not given)
Response: f

Query: # repeat for Cc1c(O)cccc1C(=O)N[C@@H](CSc1ccccc1)[C@H](O)CN1C[C@H]2CCCC[C@H]2C[C@H]1C(=O)NC(C)(C)C
Response: t

Query: # repeat for NC(N)=NC(=O)Cc1c(Cl)cccc1Cl
Response: f

Query: # repeat for CCCOC(=O)c1cc(O)c(O)c(O)c1
Response: f

Query: # repeat for COC(=O)[C@H]1[C@H]2C[C@@H]3c4[nH]c5cc(OC)ccc5c4CCN3C[C@H]2C[C@@H](OC(=O)c2cc(OC)c(OC)c(OC)c2)[C@@H]1OC
Response: f

Query: # repeat for Cc1scc2c1N(C(=O)CN1CCN(C)CC1)c1ccccc1NC2=O
Response: f

Query: # repeat for O=C(O[C@@H]1Cc2c(O)cc(O)cc2O[C@@H]1c1cc(O)c(O)c(O)c1)c1cc(O)c(O)c(O)c1
Response: f

Query: # repeat for CC1COC(=O)O1 (stereo not given)
Response: f

Query: # repeat for CCCNC(C)C(=O)Nc1ccccc1C (stereo not given)
Response: f

* * *

# System tested: Luciferin 4-monooxygenase (Photinus pyralis)
# Assay protocol: qHTS assay to identify small molecule inhibitors of firefly luciferase (AID 1224835); note: nearly all actives have a fitted effect of over 25% in size
# Assay context: purified P. pyralis luciferase, luminescence inhibition; series mostly up to 115 µM
# Description: U.S. Tox21 Program National Center for Advancing Translational Sciences [NCATS] NIH Chemical Genomics Center [NCGC] U.S. Environmental Protection Agency [EPA] National Institutes of Environmental Health Sciences [NIEHS] National Toxicology Program [NTP] U.S. Food and Drug Administration [FDA] Tox21 Assay Overview: Firefly (Photinus pyralis) luciferase is one of the most commonly used transcriptional reporters. […]
Results filed as inconclusive are left out. The source made the active and inactive calls. The call rests on the fitted dose curve; in most records, active means well fitted inhibition curve with a large enough effect in the repeat runs; inconclusive means weak or mixed curves; inactive means flat fitted curve, though single readings scatter.
// allowed return values: active, inactive

Use the examples below as a reference point.
• Nc1nc2ccccc2[nH]1 = inactive
• CCCCC(CC)COC(=O)CC(C(=O)OCC(CC)CCCC)S(=O)(=O)O (configuration not stated) = inactive
• Cc1cccc2n[nH]nc12 = inactive
• C=CC(=O)OCCCCCCOC(=O)C=C = inactive
• Oc1c(Cl)cc(Cl)c(Cl)c1Cc1c(O)c(Cl)cc(Cl)c1Cl = inactive
• NC12CC3CC(CC(C3)C1)C2 = inactive
• Cc1cc(C(C)(C)C)c(O)c(C(C)(C)C)c1 = inactive
• Cc1occc(=O)c1OC(=O)C(C)C = inactive

Read the next record carefully.
Query: Kindly provide the recorded test outcome for the following molecule: O=C1Nc2ccccc2C1(c1ccc(O)cc1)c1ccc(O)cc1
Response: inactive

* * *

# Assay protocol: Caspase-3/7 induction in CHO-K1 cells by small molecules, qHTS cell viability counter screen (AID 1346979); note: nearly all actives have a fitted effect of over 35% in size
# Assay context: CellTiter-Fluor fluorescence, 17 h; series mostly up to 92.4 µM
# Excerpt: National Center for Advancing Translational Sciences [NCATS] NIH Chemical Genomics Center [NCGC] U.S. Environmental Protection Agency [EPA] National Institutes of Environmental Health Sciences [NIEHS] National Toxicology Program [NTP] U.S. Food and Drug Administration [FDA] Apoptosis is a process of programmed cell death and plays a central role in the development of multicellular organisms. […]
Records with an inconclusive call do not appear. Active and inactive are the calls of the source. The call rests on the fitted dose curve; in most records, active means well fitted cell-killing curve with a large enough effect in the repeat runs; inconclusive means weak or mixed curves, or effect the other way; inactive means no such curve, though single readings can be large or run the other way.
// allowed return values: y (active), n (inactive)

Use the examples below as a reference point.
- Clc1ccc2c(c1)C(N1CCNCC1)=Nc1ccccc1O2: n
- NC(N)=Nc1nc(CSCC/C(N)=N/S(N)(=O)=O)cs1: n

Query: Kindly provide the recorded test outcome for the following compound: [Cl][In]([Cl])[Cl]
Response: n

Query: # repeat for NC12CC3CC(CC(C3)C1)C2
Response: n

Query: # repeat for N[C@@H]1CONC1=O
Response: n

Query: # repeat for C=CC(=O)OCCCCCCCC
Response: n

Query: # repeat for CC(C)CCOCc1ccccc1
Response: n

Query: # repeat for O=C(Oc1ccccc1)c1ccccc1O
Response: n

Query: # repeat for Cc1occc(=O)c1OC(=O)C(C)C
Response: n

Query: # repeat for Cc1cc(C(C)(C)C)c(O)c(C(C)(C)C)c1
Response: n

Query: # repeat for NCCCCCC(=O)O
Response: n

Query: # repeat for O=C(O)Cn1cnnn1
Response: n

Query: # repeat for CCC(CO)(CO)COCC(CC)(CO)CO
Response: n

Query: # repeat for CCC(=O)/C=C/C1C(C)=CCCC1(C)C (stereo not drawn)
Response: n

Query: # repeat for CC(COc1ccccc1)N(CCCl)Cc1ccccc1 (stereo not drawn)
Response: n

Query: # repeat for O=C1NCC2(CCN(CCc3ccccc3)CC2)O1
Response: n

Query: # repeat for CN(C)c1ccc(C(=C2C=CC(=[N+](C)C)C=C2)c2ccccc2)cc1
Response: y

Query: # repeat for CCCCOCCOC(=O)c1ccccc1C(=O)OCCOCCCC
Response: n

Query: # repeat for CC1=C(C=O)C(C)(C)CC=C1
Response: n
